- Subject of test: Noradrenaline (NA) reuptake (Rattus norvegicus, UniProt Q63380)
- Construct: synaptosomes are freshly isolated from areas of rat brain; from tissue; host or cells: rat hypothalamus synaptosomes (P2 fraction)
- Sequence (Q63380 1-617): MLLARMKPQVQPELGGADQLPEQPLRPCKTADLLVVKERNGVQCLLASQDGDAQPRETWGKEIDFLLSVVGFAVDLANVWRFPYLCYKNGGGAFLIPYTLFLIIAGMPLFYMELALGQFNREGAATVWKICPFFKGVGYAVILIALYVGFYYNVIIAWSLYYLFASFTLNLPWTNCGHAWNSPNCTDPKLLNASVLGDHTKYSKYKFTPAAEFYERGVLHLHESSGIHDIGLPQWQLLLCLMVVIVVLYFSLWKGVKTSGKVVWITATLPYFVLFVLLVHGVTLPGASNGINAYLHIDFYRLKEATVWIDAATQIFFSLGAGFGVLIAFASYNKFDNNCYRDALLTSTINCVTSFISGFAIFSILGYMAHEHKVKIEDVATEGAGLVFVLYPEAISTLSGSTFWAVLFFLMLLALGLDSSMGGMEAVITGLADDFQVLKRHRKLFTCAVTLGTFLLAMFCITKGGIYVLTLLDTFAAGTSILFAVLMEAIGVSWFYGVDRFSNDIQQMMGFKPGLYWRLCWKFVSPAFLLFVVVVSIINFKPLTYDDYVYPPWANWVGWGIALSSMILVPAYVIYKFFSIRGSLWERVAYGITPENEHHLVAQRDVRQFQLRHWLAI
- Experimental details: Noradrenaline (NA) reuptake inhibition in rat brain synaptosomes (hypothalamus, P2 fraction)
- Assay type: biochemical
- Measurement conditions: read-out: NA reuptake, % inhibition [10 μM]
Entries and their measured inhibition at 10 µM follow.
Use % as the unit, but write only the number.

# query: inhibition at 10 µM of entry CN(C)C(CCc1ccccc1)C1CCC(CCCO)CC1 (centres unmarked) 100

---

- Subject of test: human μ-opiate receptor (Homo sapiens, UniProt P35372)
- Sequence (P35372 whole entry): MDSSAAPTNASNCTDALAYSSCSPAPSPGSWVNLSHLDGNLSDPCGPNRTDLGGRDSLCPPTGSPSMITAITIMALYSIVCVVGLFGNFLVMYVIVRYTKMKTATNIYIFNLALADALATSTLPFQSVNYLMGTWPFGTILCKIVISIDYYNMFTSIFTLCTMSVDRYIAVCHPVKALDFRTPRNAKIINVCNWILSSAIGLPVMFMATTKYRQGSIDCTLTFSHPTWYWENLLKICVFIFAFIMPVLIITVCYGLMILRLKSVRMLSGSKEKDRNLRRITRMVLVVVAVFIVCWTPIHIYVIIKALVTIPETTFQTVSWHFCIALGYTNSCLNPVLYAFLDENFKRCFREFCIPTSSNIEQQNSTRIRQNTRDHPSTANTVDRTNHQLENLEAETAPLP
- Experimental details: Affinity for the human μ-opiate receptor ([3H]-naloxone displacement, SPA, CHO-K1 membrane preparation)
- Assay type: binding
- Measurement conditions: read-out: μ-Opioid receptor, % inhibition [1 μM]
Readout type: inhibition at 1 µM (%)
Use % as the unit, but write only the number.

Solved entries (count: 4):
CN(C)C(c1ccccc1)C1CCC(NC(=O)C2CCCCC2)CC1 (centres unmarked): 75
CN(C)C(c1cccs1)C1CCC(CCNC(=O)c2ccc(F)cc2)CC1 (centres unmarked): 99
CN(C)C(c1cccs1)C1CCC(CNC(=O)c2csc3ccccc23)CC1 (centres unmarked): 99
CSc1ncccc1C(=O)NCC1CCC(C(c2ccccc2)N(C)C)CC1 (centres unmarked): 100

Alright, here's another molecule for you.
# query: inhibition at 1 µM of entry CN(C)C(c1cccc(F)c1)C1CCC(CNC(=O)c2cc(Cl)cc(Cl)c2)CC1 (centres unmarked) 84
